Measured values drawn from ChEMBL document CHEMBL3120093 for this set.

concentration at 24 h for assorted molecules
# PROTOCOL DETAILS: Plasma concentration in rat at 5 mg/kg, po after 24 hrs
# Assay type: ADME, organism-based
# Design: dose 5 mg/kg, route oral
READOUT LABEL: concentration at 24 h

[[record]]
given_smiles = "COC(=O)N[C@@H](C(=O)N1CCC[C@H]1c1ncc(-c2ccc(-c3ccc(-c4cnc([C@@H]5CCCN5C(=O)[C@H]5CCCO5)[nH]4)cc3)cc2)[nH]1)c1ccccc1"
experimental_value = "4.5 nM"

[[record]]
given_smiles = "COC(=O)N[C@H](C(=O)N1CCC[C@H]1c1nc(-c2ccc(-c3ccc(-c4c[nH]c([C@@H]5CCCN5C(=O)[C@@H](NC(=O)OC)C(C)C)n4)cc3)cc2)c[nH]1)C(C)C"
experimental_value = "18 nM"

